Attribution: ChEMBL document CHEMBL3992519

Measured Ki (Mu-type opioid receptor (Homo sapiens, UniProt P35372))

- chemical.structure: "COc1ccc2c3c1O[C@H]1[C@H](N(C)C(=O)/C=C/c4ccoc4)CC[C@@]4(O)[C@@H](C2)N(C(=O)C2CC2)CC[C@]314"
  Ki: "> 1 µM"
- chemical.structure: "COc1ccc2c3c1O[C@H]1[C@H](N(C)C(=O)/C=C/c4ccoc4)CC[C@@]4(O)[C@@H](C2)N(S(=O)(=O)c2ccccc2)CC[C@]314"
  Ki: "> 1 µM"
- chemical.structure: "Cc1cc(NC(=O)Nc2ccc(N(C)C)cc2)c2cc(F)cc(F)c2n1.Cl.Cl"
  Ki: "> 1 µM"
- chemical.structure: "COc1ccc2c3c1O[C@H]1[C@H](N(C)C(=O)/C=C/c4ccoc4)CC[C@@]4(O)[C@@H](C2)N(C(=O)OC(C)(C)C)CC[C@]314"
  Ki: "> 1 µM"
- chemical.structure: "COc1ccc2c3c1O[C@H]1[C@H](N(C)C(=O)/C=C/c4ccccn4)CC[C@@]4(O)[C@@H](C2)N(S(=O)(=O)c2ccccc2N(C)C)CC[C@]314.O=S(=O)(O)O.O=S(=O)(O)O"
  Ki: "> 1 µM"
- chemical.structure: "CN(C)c1ccc(S(=O)(=O)N2CC[C@]34c5c6ccc(O)c5O[C@H]3[C@H](N(C)C(=O)/C=C/c3ccoc3)CC[C@@]4(O)[C@H]2C6)cc1"
  Ki: "0.971 µM"

* * *

assay.target: Delta-type opioid receptor (Homo sapiens, UniProt P41143)
Sequence (P41143 whole entry): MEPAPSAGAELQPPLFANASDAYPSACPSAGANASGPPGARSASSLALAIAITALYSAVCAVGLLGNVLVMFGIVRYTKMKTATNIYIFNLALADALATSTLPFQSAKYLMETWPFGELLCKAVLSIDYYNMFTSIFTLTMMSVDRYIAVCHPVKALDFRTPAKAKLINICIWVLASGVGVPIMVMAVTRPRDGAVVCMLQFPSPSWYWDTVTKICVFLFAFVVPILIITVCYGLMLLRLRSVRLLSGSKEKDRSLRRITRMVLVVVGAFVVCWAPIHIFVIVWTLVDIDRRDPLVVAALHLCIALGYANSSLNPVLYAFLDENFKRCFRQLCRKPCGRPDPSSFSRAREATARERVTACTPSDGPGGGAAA
protocol: Displacement of [3H]DPDPE from human delta opioid receptor expressed in CHO cell membranes by micro-beta scintillation counting method
pKi: −log10 of the molar value.
Parameter: pKi. Scope: all listed entries.
parameter.measured: pKi

- compound: "COc1ccc2c3c1O[C@H]1[C@H](N(C)C(=O)/C=C/c4ccoc4)CC[C@@]4(O)[C@@H](C2)N(C(=O)OC(C)(C)C)CC[C@]314"
  recorded.measurement: "< 6.00"
- compound: "COc1ccc2c3c1O[C@H]1[C@H](N(C)C(=O)/C=C/c4ccoc4)CC[C@@]4(O)[C@@H](C2)N(C(=O)/C=C/c2ccccc2)CC[C@]314"
  recorded.measurement: "< 6.00"
- compound: "COc1ccc2c3c1O[C@H]1[C@H](N(C)C(=O)/C=C/c4ccoc4)CC[C@@]4(O)[C@@H](C2)N(S(=O)(=O)c2ccccc2)CC[C@]314"
  recorded.measurement: "< 6.00"
- compound: "CN(C(=O)/C=C/c1ccoc1)[C@@H]1CC[C@@]2(O)[C@H]3Cc4ccc(O)c5c4[C@@]2(CCN3CC2CC2)[C@H]1O5.Cl [NALFURAFINE HYDROCHLORIDE]"
  recorded.measurement: 6.16
- compound: "COc1ccc2c3c1O[C@H]1[C@H](N(C)C(=O)/C=C/c4ccoc4)CC[C@@]4(O)[C@@H](C2)N(C(=O)C2CC2)CC[C@]314"
  recorded.measurement: "< 6.00"
- compound: "COc1ccc2c3c1O[C@H]1[C@H](N(C)C(=O)/C=C/c4ccoc4)CC[C@@]4(O)[C@@H](C2)N(S(=O)(=O)c2ccc(N(C)C)cc2)CC[C@]314.Cl"
  recorded.measurement: "< 6.00"
